Quick list: TGI per entry.
# Test system: SF-268 CNS
# experimental.details: NCI tumour cell line growth inhibition, 48 h

Previously resolved entries follow.
- compound: "CN1CCN(Cc2ccc(NC(=O)c3cncc(C#Cc4cnn5ccccc45)c3)cc2C(F)(F)F)CC1"
  TGI: "2.54 µM"
- compound: "C=C1CC(COc2ccc3c(C)cc(=O)oc3c2)(c2ccccc2)OC1=O (stereo not drawn)"
  TGI: "23.9 µM"
- compound: "CN1C(=O)C23CCCCC2CC1(c1ccccc1)S3 (stereo not drawn)"
  TGI: "> 100 µM"

Input: Hello, I am looking for reported TGI with SF-268 CNS for BrCC(Br)(c1ccccc1)c1ccccc1-c1cc(-c2ccccc2)cc(-c2ccccc2)n1 (stereo not drawn) . Could you help?
Output: 8.5 µM

Input: Hello, I am looking for reported TGI with SF-268 CNS for CC(NC(NC(C)C12CC3CC(CC(C3)C1)C2)=C(C(Cl)=C(Cl)Cl)[N+](=O)[O-])C12CC3CC(CC(C3)C1)C2 (stereo not drawn) . Could you help?
Output: > 59.5 µM

Input: Hello, I am looking for reported TGI with SF-268 CNS for CN(C)c1ccc(C2ON=C(c3ccccc3)N2C23CC4CC(CC(C4)C2)C3)cc1 (stereo not drawn) . Could you help?
Output: > 10 µM

====

# System: COLO 205 colon
# experimental.details: NCI tumour cell line growth inhibition, 48 h
So basically: TGI at 30 µM or higher? That is 1 (yes). Lower than 30 µM? That is 0 (no).

Solved cases below.
- compound: "COc1ccc(-c2nc(-c3cnccn3)n(COCCO)n2)cc1"
  category: "1 (yes)"
- compound: "CN(O)C(=S)c1ccccc1"
  category: "0 (no)"
- compound: "COc1ccc(/C=c2/sc3n(c2=O)NC(c2ccc(Cl)cc2)NN=3)cc1 (configuration not stated)"
  category: "1 (yes)"
- compound: "CCCCCCCCCCCCCCCC(=O)OC1C(O)C(CO)OC(OC)C1NC(=O)N(CCCl)N=O (configuration not stated)"
  category: "1 (yes)"

Input: In plain terms: is recorded TGI at least 30 µM for CC(=O)Oc1c2oc3cc(O)c(O)cc3c2c(OC(C)=O)c2oc3cc(O)c(O)cc3c12 ?
Output: 1 (yes)

Input: In plain terms: is recorded TGI at least 30 µM for CC(=N)N(C)O ?
Output: 1 (yes)

Input: In plain terms: is recorded TGI at least 30 µM for O=C(c1ccccc1)c1c(CC(O)c2ccccc2)n(C(=O)c2ccccc2)c2ccccc12 (configuration not stated) ?
Output: 1 (yes)

Input: In plain terms: is recorded TGI at least 30 µM for CCOC(=O)NC(=S)c1ccc(O)c2ccccc12 ?
Output: 1 (yes)

====

Quick list: TGI per entry.
# Test system: U251 CNS
# experimental.details: NCI tumour cell line growth inhibition, 48 h
Numeric only. Scale: µM

Previously resolved entries follow.
- molecule: "CCOC(=O)C1SC(=Nc2ccc(Cl)cc2C)N=C1C (centres undefined)"
  TGI, µM: 31.6
- molecule: "CN1CCN(Cc2ccc(NC(=O)c3cncc(C#Cc4cnn5ccccc45)c3)cc2C(F)(F)F)CC1"
  TGI, µM: 4.15
- molecule: "CCC[CH2][Sn]([CH2]CCC)([O]C(=O)c1cc(F)cc(F)c1)[O][Sn]([CH2]CCC)([CH2]CCC)[O]C(=O)c1cc(F)cc(F)c1"
  TGI, µM: 2.28

Attention now shifts to the item below.
Input: Given COCOCC[C@@H]1CC=CC(NC(=O)OCc2ccccc2)C1/C=C/C(=O)CCC1OCCO1 (some centres undefined) , state its recorded TGI.
Output: 70.6

====

# Tested on: HCT-116 colon
# experimental.details: NCI tumour cell line growth inhibition, 48 h
Quick list: TGI per entry.

Previously resolved entries follow.
- compound: "CC1=NN(C(=O)c2ccc(Cl)cc2)C(=O)/C1=C/c1ccco1"
  TGI: "> 100 µM"
- compound: "[O-][n+]1c(-c2ccccc2)c2nc3ccccc3nc2c2ccccc21"
  TGI: "> 100 µM"
- compound: "NNC(=O)N/N=C1\\C(=O)N(c2nccs2)C(=O)C(=O)C1c1nc2ccccc2s1 (centres undefined)"
  TGI: "> 100 µM"

Input: Given NC(=S)NS(=O)(=O)c1ccc(F)cc1F , state its recorded TGI.
Output: > 100 µM

====

# Tested on: OVCAR-4 ovarian
# experimental.details: NCI tumour cell line growth inhibition, 48 h
Quick list: TGI per entry.

- compound: "CC(=O)NC(CCCCN(Cc1ccccc1)C(=O)N(CCCl)N=O)C(=O)NCc1ccccc1 (centres undefined)"
  TGI: "> 100 µM"
- compound: "Oc1cc(CN2COc3ccccc32)c(O)cc1CNC1CCCCC1"
  TGI: "52.2 µM"
- compound: "CCC[CH2][Sn]([CH2]CCC)([O]C(=O)c1cc(F)cc(F)c1)[O][Sn]([CH2]CCC)([CH2]CCC)[O]C(=O)c1cc(F)cc(F)c1"
  TGI: "3.51 µM"
- compound: "COC(=O)C1C(C(=O)OC)C1(Br)CBr (centres undefined)"
  TGI: "> 100 µM"
- compound: "COC(=O)C(=O)C(C(=O)C=C(C)C)C(=O)C(=O)Nc1nc2ccc([N+](=O)[O-])cc2s1 (centres undefined)"
  TGI: "> 100 µM"

Input: Given CC(=O)Oc1c2oc3cc(O)c(O)cc3c2c(OC(C)=O)c2oc3cc(O)c(O)cc3c12 , state its recorded TGI.
Output: 62.3 µM

Input: Given O=C(N/N=C(/COc1cccc(Cl)c1)N=Cc1cccnc1)c1ccncc1 , state its recorded TGI.
Output: > 100 µM

Input: Given COC(=O)c1c(C(=O)OC)c2c3ccccc3n(C)c2c2c1c1ccccc1n2C , state its recorded TGI.
Output: > 100 µM

Input: Given Cc1cc(C)nc(NS(=O)(=O)c2ccc(NC(=O)c3ccc(Cl)c4c(Nc5ccc(S(=O)(=O)N=C(N)N)cc5)c5ccccc5nc34)cc2)n1 , state its recorded TGI.
Output: > 100 µM

====

Quick list: TGI per entry.
# Test system: MDA-N
# experimental.details: NCI tumour cell line growth inhibition, 48 h
Where a SMILES comes first, the peptide text is derived from it. [ ]: non-standard residue; d: D form. 2Nal = N[CH](Cc1ccc2ccccc2c1)C(=O)O

- compound: "CC[C@@H](/C=C\\CCC1(C[C@@H](N)CCC=C(C)C)OCCO1)O[Si](C(C)C)(C(C)C)C(C)C"
  TGI: "30.7 µM"
- compound: "O=[N+]([O-])c1cccc2nc3ccccc3c(NCCCN3CCCCC3)c12"
  TGI: "0.0217 µM"

Attention now shifts to the item below.
Input: Given CC(C)C(NC(=O)C(CCCCN)NC(=O)C(Cc1c[nH]c2ccccc12)NC(=O)C(Cc1ccc(O)cc1)NC(=O)C(CS)NC(=O)C(N)Cc1ccc2ccccc2c1)C(=O)NC(CS)C(=O)NC(C(N)=O)C(C)O (stereo not drawn) (H-[2Nal]CYWKVCT-NH2; configuration not given here) , state its recorded TGI.
Output: > 12.5 µM

====

# Test system: HCT-116 colon
# experimental.details: NCI tumour cell line growth inhibition, 48 h
experimental.endpoint: TGI

Input: Given COCCOCCOCCOc1ccc(C(C#N)N(CCc2ccccc2)C(=O)c2cc(C(=O)N(CCc3ccccc3)C(C#N)c3ccc(OCCOCCOCCOC)cc3)cc(C(=O)N(CCc3ccccc3)C(C#N)c3ccc(OCCOCCOCCOC)cc3)c2)cc1 (centres undefined) , state its recorded TGI.
Output: > 100 µM

Input: Given CC(C)CN(CC#N)CC(C)C , state its recorded TGI.
Output: > 100 µM

Input: Given CC(NC(NC(C)C12CC3CC(CC(C3)C1)C2)=C(C(Cl)=C(Cl)Cl)[N+](=O)[O-])C12CC3CC(CC(C3)C1)C2 (centres undefined) , state its recorded TGI.
Output: 40 µM

====

Quick list: TGI per entry.
# Test system: SK-MEL-5 melanoma
# experimental.details: NCI tumour cell line growth inhibition, 48 h

Previously resolved entries follow.
- molecule: "CC(=O)ON(C(C)=O)C1C(COC(c2ccccc2)(c2ccccc2)c2ccccc2)OC2OC3(CCCC3)OC21 (stereo not drawn)"
  TGI: "> 100 µM"
- molecule: "O=C(Nc1cccc(Cl)c1)c1cc(N=Nc2ccc([N+](=O)[O-])cc2Cl)ccc1O"
  TGI: "3.81 µM"
- molecule: "O=C1NC(S(=O)(=O)O)=NNC12c1ccccc1-c1ccccc12"
  TGI: "> 10 µM"
- molecule: "NC(=O)C(Nc1ccc(Cl)cc1)c1cc2cc(Br)ccc2nc1Cl (stereo not drawn)"
  TGI: "> 50 µM"

Input: Given COc1cc(/C=C\c2cc(/C=C\c3ccc(O)c(OC)c3)n(C(=O)CNc3ccc(Cl)cc3)n2)ccc1O , state its recorded TGI.
Output: 11.3 µM

Input: Given CN(C)C(=O)C1CCN(Cc2c[nH]c3ccccc23)CC1 , state its recorded TGI.
Output: > 100 µM

Input: Given COc1cccc2cc(C(=O)Nc3ccccn3)c(=N)oc12 , state its recorded TGI.
Output: > 100 µM

Input: Given CC1=NN(C(=O)c2ccc(Cl)cc2)C(=O)/C1=C/c1ccco1 , state its recorded TGI.
Output: > 100 µM

Input: Given CCCOC1OC(CS(=O)(=O)O)C(O)C(O)C1O (stereo not drawn) , state its recorded TGI.
Output: > 100 µM

Input: Given CC1CC(C)C2=NOS3=C2C1=NO3 (stereo not drawn) , state its recorded TGI.
Output: > 100 µM

Input: Given CCCCCCCCCOC(=S)NCCCCC , state its recorded TGI.
Output: 40.7 µM

Input: Given CSc1ccc(C2=NN(C(C)=O)C(c3ccc(F)cc3)C2)cc1 (stereo not drawn) , state its recorded TGI.
Output: 26.4 µM

Input: Given CC(C)(C)NC(=O)C12C3C4C1C1C2C3C41C(=O)NC(C)(C)C (stereo not drawn) , state its recorded TGI.
Output: > 100 µM

Input: Given CN(C)Cc1cc(N=Nc2ccc(Cl)cc2)ccc1O , state its recorded TGI.
Output: 27.6 µM

Input: Given O=S(=O)(OI(O)CC(F)(F)F)C(F)(F)F , state its recorded TGI.
Output: > 100 µM

Input: Given COc1ccc(/C=c2/sc3n(c2=O)NC(c2ccc(Cl)cc2)NN=3)cc1 (stereo not drawn) , state its recorded TGI.
Output: > 100 µM

Input: Given O=C1C(Cl)=C(N2CCN(c3ccccn3)CC2)C(=O)c2ncccc21 , state its recorded TGI.
Output: 4.22 µM

Hello, the source for this data is PubChem BioAssay (NCI), in case you need it.
